assay: Pharmacokinetic studies in rat; type: in vivo; conditions: Sprague-Dawley, rat; male SD rats, oral 10 mg/kg, plasma
MEASURED METRIC: Cmax (ng/mL)
Report as a plain number; the unit ng/mL is understood.

Example compounds with recorded Cmax:
>  <COMPOUND>
CC(=O)/C(=N\Nc1ccccc1C(=O)O)C(=O)Nc1ccccn1 [S3-15]

>  <EXPERIMENTAL RESULT>
9520

$$$$
>  <COMPOUND>
CCOC(=O)c1sc(NC(=O)/C(=N/Nc2ccccc2C(=O)O)C(C)=O)nc1C [S3]

>  <EXPERIMENTAL RESULT>
1430

$$$$

# Cmax (compound: CCOC(=O)c1sc(NC(=O)/C(=N/Nc2ccc(O)cc2C(=O)O)C(C)=O)nc1C [S3-05] ) is 60
